The values you see were collected from patent US20230017045A1.

tested on: test plant species; assay: Post-emergent herbicidal activity test (greenhouse, foliar spray, visual growth reduction); assay type: in vivo; details: post-emergence, 336 h, KCHSC: kochia (Bassia scoparia), 140 g ai/ha, 14 days after application, read-out: Visual Growth Reduction (%) 14 Days After Application, KCHSC
measuredParameter: pest or weed control at 140 g/ha

Input: Need pest or weed control at 140 g/ha of `O=C(O)c1nc(-c2cc(F)c3c(c2)OC(F)(F)O3)ccc1Cl` , thanks.
Output: 0 to 29%

Input: Need pest or weed control at 140 g/ha of `COC(=O)c1nc(-c2ccc(C(C)=O)cc2Cl)ccc1Cl` , thanks.
Output: 0 to 29%

Input: Need pest or weed control at 140 g/ha of `COC(=O)c1nc(-c2ccc(C(F)(F)C(N)=O)cc2Cl)ccc1Cl` , thanks.
Output: 0 to 29%

Input: Need pest or weed control at 140 g/ha of `C=Cc1cc(-c2nc(C(=O)O)c(Cl)cc2F)c(Cl)cc1C(F)(F)F` , thanks.
Output: 85 to 94%

Input: Need pest or weed control at 140 g/ha of `C#Cc1ccc(-c2ccc(C(F)(F)F)cc2Cl)nc1C(=O)OC` , thanks.
Output: 0 to 29%

Input: Need pest or weed control at 140 g/ha of `COC(=O)c1nc(-c2ccc(C(F)(F)F)c(F)c2)ccc1Cl` , thanks.
Output: 0 to 29%

Input: Need pest or weed control at 140 g/ha of `O=C(O)c1nc(-c2cc3c(cc2Cl)OC(F)(F)O3)c(Cl)cc1Cl` , thanks.
Output: 45 to 59%

Input: Need pest or weed control at 140 g/ha of `O=C(O)c1nc(-c2cccc3c2OC(F)(F)O3)ccc1Cl` , thanks.
Output: 0 to 29%

Input: Need pest or weed control at 140 g/ha of `COC(=O)c1cc2c(c(-c3nc(C(=O)OC)c(Cl)cc3F)c1)OC(F)(F)O2` , thanks.
Output: 0 to 29%

Input: Need pest or weed control at 140 g/ha of `C=Cc1c(C(F)(F)F)ccc(-c2nc(C(=O)OC)c(Cl)cc2F)c1Cl` , thanks.
Output: 45 to 59%

* * *

system: test plant species; assay: Post-emergent herbicidal activity test (greenhouse, foliar spray, visual growth reduction); assay type: in vivo; details: post-emergence, 336 h, CHEAL: lambsquarters (Chenopodium album), 140 g ai/ha, 14 days after application, read-out: Visual Growth Reduction (%) 14 Days After Application, CHEAL
measuredParameter: pest or weed control at 140 g/ha

Input: Need pest or weed control at 140 g/ha of `COc1c(Cl)ccc(-c2ccc(Cl)c(C(=O)O)n2)c1F` , thanks.
Output: 75 to 84%

Input: Need pest or weed control at 140 g/ha of `COC(=O)c1nc(-c2cc(Br)c(C(F)(F)F)cc2Cl)ccc1Cl` , thanks.
Output: 95 to 100%

Input: Need pest or weed control at 140 g/ha of `COC(=O)c1nc(-c2cc3c(cc2Cl)OCO3)c(F)cc1Cl` , thanks.
Output: 75 to 84%

Input: Need pest or weed control at 140 g/ha of `O=C(O)c1nc(-c2cc3c(cc2Cl)OC(F)(F)O3)c(F)cc1Cl` , thanks.
Output: 95 to 100%

Input: Need pest or weed control at 140 g/ha of `COc1c(Cl)ccc(-c2nc(C(=O)O)c(Cl)c(Cl)c2F)c1F` , thanks.
Output: 95 to 100%

Input: Need pest or weed control at 140 g/ha of `COC(=O)c1nc(-c2ccc(Cl)cc2Cl)ccc1C` , thanks.
Output: 0 to 29%

Input: Need pest or weed control at 140 g/ha of `COC(=O)c1nc(-c2ccc(-c3ccc(F)cc3)cc2Cl)ccc1Cl` , thanks.
Output: 0 to 29%

Input: Need pest or weed control at 140 g/ha of `COC(=O)c1nc(-c2ccc(C(F)(F)F)cc2C(F)(F)F)ccc1Cl` , thanks.
Output: 60 to 74%

Input: Need pest or weed control at 140 g/ha of `C=Cc1c(C(F)(F)F)ccc(-c2ccc(Cl)c(C(=O)OC)n2)c1Cl` , thanks.
Output: 75 to 84%

Input: Need pest or weed control at 140 g/ha of `O=C(OCc1ccncc1)c1nc(-c2ccc(C(F)(F)F)cc2Cl)ccc1Cl` , thanks.
Output: 75 to 84%

Input: Need pest or weed control at 140 g/ha of `COC(=O)c1cc(Cl)cc(-c2ccc(Cl)cc2Cl)n1` , thanks.
Output: 0 to 29%

Input: Need pest or weed control at 140 g/ha of COC(=O)c1nc(-c2ccc(C(F)(F)F)c([S+](C)[O-])c2Cl)ccc1Cl (stereo not drawn) , thanks.
Output: 0 to 29%

Input: Need pest or weed control at 140 g/ha of `COC(=O)c1nc(-c2ccc(C(F)(F)F)cc2Cl)ccc1C(F)(F)F` , thanks.
Output: 0 to 29%

Input: Need pest or weed control at 140 g/ha of `O=C(O)c1nc(-c2cc(Br)c(C(F)(F)F)cc2Cl)c(F)cc1Cl` , thanks.
Output: 95 to 100%

Input: Need pest or weed control at 140 g/ha of `O=C(O)c1nc(-c2ccc(C(F)(F)F)nc2)c(Cl)cc1Cl` , thanks.
Output: 45 to 59%

Input: Need pest or weed control at 140 g/ha of `COC(=O)c1nc(-c2cc(F)c(C)cc2Cl)ccc1Cl` , thanks.
Output: 60 to 74%

Input: Need pest or weed control at 140 g/ha of `COC(=O)c1nc(-c2cc(Cl)cnc2OC)ccc1Cl` , thanks.
Output: 0 to 29%

Input: Need pest or weed control at 140 g/ha of `COC(=O)c1nc(-c2ccc3occc3c2)c(F)cc1Cl` , thanks.
Output: 60 to 74%

Input: Need pest or weed control at 140 g/ha of `COC(=O)c1nc(-c2cc(C)c(Cl)cc2Cl)ccc1Cl` , thanks.
Output: 45 to 59%

Input: Need pest or weed control at 140 g/ha of `COC(=O)c1nc(-c2ccc(C)cc2Cl)ccc1Cl` , thanks.
Output: 0 to 29%

Input: Need pest or weed control at 140 g/ha of `O=C(O)c1nc(-c2ccc(C(F)(F)F)cc2Cl)ccc1F` , thanks.
Output: 95 to 100%

* * *

tested on: test plant species; assay: Post-emergent herbicidal activity test (greenhouse, foliar spray, visual growth reduction); format: in vivo; settings: post-emergence, 336 h, kochia (Bassia scoparia), 14 Days After Application, 140 g ai/ha, read-out: Visual Growth Reduction (%) KCHSC
measuredParameter: pest or weed control at 140 g/ha

Input: Tell me reported pest or weed control at 140 g/ha for COC(=O)c1nc(-c2ccc(C3CC3(F)F)cc2Cl)ccc1Cl (centres unmarked) [F13] , tested with test plant species.
Output: 60 to 74%

Input: Tell me reported pest or weed control at 140 g/ha for COC(=O)c1nc(-c2ccc(C(F)(F)F)cc2F)ccc1Cl [F12] , tested with test plant species.
Output: 0 to 29%

Input: Tell me reported pest or weed control at 140 g/ha for COC(=O)c1nc(-c2ccc(C(F)(F)F)cc2C(F)(F)F)ccc1Cl [F17] , tested with test plant species.
Output: 0 to 29%

Input: Tell me reported pest or weed control at 140 g/ha for COC(=O)c1nc(-c2ccc(/C=N/N(C)C)cc2Cl)ccc1Cl [F20] , tested with test plant species.
Output: 0 to 29%

Input: Tell me reported pest or weed control at 140 g/ha for C#Cc1ccc(-c2ccc(Cl)c(C(=O)OC)n2)c(Cl)c1 [F18] , tested with test plant species.
Output: 0 to 29%

* * *

test system: test plant species; test: Post-emergent herbicidal activity test (greenhouse, foliar spray, visual growth reduction); assay type: in vivo; conditions: post-emergence, 336 h, AMARE: redroot pigweed (Amaranthus retroflexus), 140 g ai/ha, 14 days after application, read-out: Visual Growth Reduction (%) 14 Days After Application, AMARE
measuredParameter: pest or weed control at 140 g/ha

Input: Need pest or weed control at 140 g/ha of `COC(=O)c1nc(-c2ccc(C(F)(F)F)cc2Cl)cc(Cl)c1Cl` , thanks.
Output: 0 to 29%

Input: Need pest or weed control at 140 g/ha of `COC(=O)c1nc(-c2ccc(C#N)cc2Cl)c(F)cc1Cl` , thanks.
Output: 75 to 84%

Input: Need pest or weed control at 140 g/ha of `COC(=O)c1nc(-c2ccc(/C=N/N(C)C)cc2Cl)ccc1Cl` , thanks.
Output: 0 to 29%

Input: Need pest or weed control at 140 g/ha of `COC(=O)c1nc(-c2ccc(C(F)(F)F)cc2OC)c(F)cc1Cl` , thanks.
Output: 95 to 100%

Input: Need pest or weed control at 140 g/ha of `COC(=O)c1nc(-c2ccc3[nH]ccc3c2)c(F)cc1Cl` , thanks.
Output: 0 to 29%

Input: Need pest or weed control at 140 g/ha of `C#Cc1cc(-c2ccc(C(F)(F)F)cc2Cl)nc(C(=O)OC)c1Cl` , thanks.
Output: 0 to 29%

Input: Need pest or weed control at 140 g/ha of `COC(=O)c1nc(-c2cc(Cl)cnc2OC)ccc1Cl` , thanks.
Output: 0 to 29%
